Quick list: log10 EC50 per entry.
Test system: Plasmodium falciparum
Experiment: ST_JUDE: Cytotoxicity against Plasmodium falciparum 3D7
Type: functional, organism-based
OBSERVATION TYPE: log10 EC50 (log10 of the value in µM)

compound=O=C1C(Nc2ccc(Br)cc2)=C(n2nnc3ccccc32)C(=O)c2ccccc21 observation_type="log10 EC50" test_result=-1.22
compound=C[n+]1ccccc1/C=C/c1ccc([N+](=O)[O-])cc1 observation_type="log10 EC50" test_result=-0.09
compound=CC[n+]1ccccc1C=Cc1ccc(N(C)C)cc1 observation_type="log10 EC50" test_result=0.03
compound="CCCO/C(O)=C1\\C(C)=NC2=C(C(=O)CC(c3ccc(OC)c(OC)c3)C2)C1c1cccc(C)c1 (centres undefined)" observation_type="log10 EC50" test_result=-0.14
compound=COC(=O)C1=CNC=C(C(=O)OC)C1c1ccc(Cl)c(Cl)c1 observation_type="log10 EC50" test_result=-0.11
compound=CCOc1ccc(N(C(C)=O)C2=C(N3CCOCC3)C(=O)c3ccccc3C2=O)cc1 observation_type="log10 EC50" test_result=-1.16
compound=CCCCCOc1ccc(N(C(C)=O)C2=C(N3CCCCC3)C(=O)c3ccccc3C2=O)cc1 observation_type="log10 EC50" test_result=-0.71
compound=CN(C)c1cc[n+](CC(=O)c2ccc(Br)cc2)cc1 observation_type="log10 EC50" test_result=0.21
compound=CCCN(C(=O)C(=O)Nc1ccc2nc3n(c(=O)c2c1)CCCCC3)c1ccc(OCC)cc1 observation_type="log10 EC50" test_result=-0.31
compound="COCCO/C(O)=C1\\C(C)=NC2=C(C(=O)CC(c3ccc(OC)c(OC)c3)C2)C1c1ccccc1F (centres undefined)" observation_type="log10 EC50" test_result=-0.30
compound="CO/C(O)=C1\\C(C)=NC2=C(C(=O)CC(c3ccc(OC)c(OC)c3)C2)C1c1ccccc1C (centres undefined)" observation_type="log10 EC50" test_result=-0.51
compound=CCCCCOc1ccc(N(C(C)=O)C2=C(N3CCOCC3)C(=O)c3ccccc3C2=O)cc1 observation_type="log10 EC50" test_result=-1.12
compound=CCc1ccc(Nc2cc(C)c3ccc(O)cc3n2)cc1 observation_type="log10 EC50" test_result=-0.20
compound=C=CCN1C=CC=C/C1=C\c1sc2ccccc2[n+]1CC observation_type="log10 EC50" test_result=0.11
compound="CC(C)CN1C(=O)c2ccccc2C(C(=O)Nc2cccc(C#N)c2)C1c1cccs1 (centres undefined)" observation_type="log10 EC50" test_result=-0.57
compound="CC(C)CN1C(=O)c2ccccc2C(C(=O)Nc2ccc(F)cc2F)C1c1cccs1 (centres undefined)" observation_type="log10 EC50" test_result=-0.19
compound=CCOC(=O)C1(Cc2ccccc2)CCN(Cc2cccc(OC)c2O)CC1 observation_type="log10 EC50" test_result=0.17
compound="Cc1ccc(C(O)(CNCc2ccccc2)c2ccc(Br)cc2)cc1 (centres undefined)" observation_type="log10 EC50" test_result=0.32
compound=O=C(c1ccccc1)N1CCN(c2ccccc2NC(=O)C(Cl)(Cl)Cl)CC1 observation_type="log10 EC50" test_result=-0.04
compound="COc1ccc(NC(=O)C2c3ccccc3C(=O)N(CC(C)C)C2c2cccs2)cc1 (centres undefined)" observation_type="log10 EC50" test_result=-0.66
compound=CN1C(=O)/C(=C\c2ccccc2Cl)Sc2ccc(C(=O)NC3CCN(Cc4ccccc4)CC3)cc21 observation_type="log10 EC50" test_result=0.24
compound="COc1ccc(C2CC(=O)C3=C(C2)NC(=O)CC3c2ccc(Br)cc2)cc1OC (centres undefined)" observation_type="log10 EC50" test_result=0.02
compound="COc1ccc(NC(=O)C2c3ccccc3C(=O)N(C3CCCC3)C2c2cccs2)cc1 (centres undefined)" observation_type="log10 EC50" test_result=0.09
compound="CCOC(=O)c1cccc(NC(=O)CC2C(=O)N(c3ccc(F)cc3)C(=O)N2CCC(C)C)c1 (centres undefined)" observation_type="log10 EC50" test_result=-0.02

* * *

Quick list: EC50 per entry.
Assay: ST_JUDE: Cytotoxicity using luciferase to measure ATP as an indicator of the viability of human foreskin fibroblast cells (BJ)
Format: toxicity, cell-based
OBSERVATION TYPE: EC50

compound="CCO/C(O)=C1\\C(C)=NC2=C(C(=O)CC(c3ccc(OC)c(OC)c3)C2)C1c1ccccc1Cl (stereo unspecified)" test_result="> 44.6 µM"
compound=Cc1ccc2c(c1)N(C)/C(=C/c1sc3ccccc3[n+]1CCO)S2 test_result="> 19.3 µM"
compound="CCOc1cc(C2CC(=O)NC3=C2C(=O)CC(c2cc(OC)ccc2OC)C3)ccc1O (stereo unspecified)" test_result="> 40.9 µM"
compound=CCCCCCCCCC[n+]1ccccc1 test_result="> 48.9 µM"
compound="CCO/C(O)=C1\\C(C)=NC2=C(C(=O)CC(c3ccc(OC)c(OC)c3)C2)C1c1cccc(Cl)c1 (stereo unspecified)" test_result="> 41.9 µM"
compound=Fc1ccc(Nc2nc(NCc3ccco3)c3ccccc3n2)cc1 test_result="20.1 µM"
compound="COc1ccc(C2CC(=O)C3=C(C2)NC(=O)CC3c2ccc(OC)c(OC)c2)cc1 (stereo unspecified)" test_result="> 45.4 µM"
compound=C[N+](C)(C)c1nc(N2CCOCC2)nc(N(c2ccccc2)c2ccccc2)n1 test_result="> 42.8 µM"
compound="COCCO/C(O)=C1\\C(C)=NC2=C(C(=O)CC(c3ccc(OC)c(OC)c3)C2)C1c1ccc(F)cc1 (stereo unspecified)" test_result="> 42.4 µM"
compound=C=CC[n+]1c(C=C2C=CN(CC)C=C2)sc2ccccc21 test_result="> 28.2 µM"
compound=CCN1/C(=C/c2cccc[n+]2C)Sc2ccc(OC)cc21 test_result="> 26.2 µM"
compound="OC(CNC1CCCC1)Cn1c2ccc(Cl)cc2c2cc(Cl)ccc21 (stereo unspecified)" test_result="> 24.3 µM"
compound="COc1ccc(NC(=O)C2c3ccccc3C(=O)N(CC(C)C)C2c2cccs2)cc1OC (stereo unspecified)" test_result="> 44 µM"
compound=CCc1ccc(Nc2cc(C)c3ccc(O)cc3n2)cc1 test_result="> 43.6 µM"
compound="CC(C)CN1C(=O)c2ccccc2C(C(=O)Nc2ccc(F)c(Cl)c2)C1c1cccs1 (stereo unspecified)" test_result="> 42.3 µM"
compound=CC[n+]1c(/C=C/c2ccc(N(C)C)cc2)ccc2cc(OC)ccc21 test_result="> 23.2 µM"
compound=Cc1ccc2c(c1)S/C(=C\c1sc3ccccc3[n+]1C)N2CCO test_result="> 23.7 µM"
compound="COc1cccc(NC(=O)C2c3ccccc3C(=O)N(CC(C)C)C2c2cccs2)c1 (stereo unspecified)" test_result="> 40.8 µM"
compound=CC(C)c1ccccc1Oc1c(C(F)(F)F)oc2c(CN3CCN(C)CC3)c(O)ccc2c1=O test_result="> 21 µM"
compound=CCc1ccc(S(=O)(=O)NC2=C/C(=N\c3ccccc3)C(=O)c3ccccc32)cc1 test_result="5.65 µM"
compound=CCOc1ccccc1N1CCN(Cc2cc(Br)cc(OC)c2O)CC1 test_result="> 36.8 µM"

* * *

Tested on: Plasmodium falciparum
Experiment: ST_JUDE: Plasmodium falciparum 3D7 EC50 (uM) as measured by SYBR green dye
Assay type: functional, organism-based
pEC50: −log10 of the molar value.
OBSERVATION TYPE: pEC50

molecule="COc1ccc(C2CC3=NC(C)=C(C(=O)OCC(C)C)C(c4ccc(F)cc4)C3=C(O)C2)cc1 (stereo not given)" assay_system="Plasmodium falciparum" observation_type=pEC50 measurement_qualifier== test_result=5.57
molecule="CCOc1ccccc1CNC(=O)C1c2ccccc2C(=O)N(CC(C)C)C1c1cccs1 (stereo not given)" assay_system="Plasmodium falciparum" observation_type=pEC50 measurement_qualifier== test_result=5.84
molecule="CC(C)(C)c1cc(C2C(C#N)=C(N)OC3=C2C(=O)CCC3)cc(C(C)(C)C)c1O (stereo not given)" assay_system="Plasmodium falciparum" observation_type=pEC50 measurement_qualifier== test_result=5.87
molecule="COc1ccc(C(O)(CCC(C)C)C(CN2CCOCC2)c2ccccc2)cc1 (stereo not given)" assay_system="Plasmodium falciparum" observation_type=pEC50 measurement_qualifier== test_result=5.44
molecule="Oc1c(C(Nc2ccccn2)c2cccc(Cl)c2Cl)ccc2cccnc12 (stereo not given)" assay_system="Plasmodium falciparum" observation_type=pEC50 measurement_qualifier== test_result=5.75
molecule=Cc1ccc(N2C(=O)C(Cl)=C(Nc3ccccc3C)C2=O)c(C)c1 assay_system="Plasmodium falciparum" observation_type=pEC50 measurement_qualifier=< test_result=4.82
molecule=CCCCCN1COc2ccc3c4c(c(=O)oc3c2C1)CCCC4 assay_system="Plasmodium falciparum" observation_type=pEC50 measurement_qualifier== test_result=5.77
molecule=CC(C)(C)c1ccc(O)c(CN2CCN(c3ccccc3)CC2)c1 assay_system="Plasmodium falciparum" observation_type=pEC50 measurement_qualifier== test_result=5.96
molecule=CCOC(=O)C1(Cc2ccccc2)CCN(Cc2cccc(OC)c2O)CC1 assay_system="Plasmodium falciparum" observation_type=pEC50 measurement_qualifier== test_result=5.64
molecule=Cc1c(C(=O)Nc2cc(Cl)ccc2Cl)cccc1[N+](=O)[O-] assay_system="Plasmodium falciparum" observation_type=pEC50 measurement_qualifier=< test_result=4.82
